Data origin: paper PMC12655758

biological target: UniProt Q9D1A2; experiment: LC-MS assay of Cys-Gly hydrolysis by purified CNDP2 (Cys-NEM readout; IC50 […] by Gly); assay type: biochemical
Observed Property: IC50 (µM)
Entry rule: numbers only, all in µM.

Record summary for "CC(C)C[C@H](NC(=O)[C@@H](O)[C@H](N)Cc1ccccc1)C(=O)O" : reported IC50 = 1

###

molecular target: Carnosine dipeptidase 2 (CNDP2) (Mus musculus, UniProt Q9D1A2); assay: LC-MS assay of Cys-Gly hydrolysis by purified CNDP2 (Cys-NEM readout; IC50 […] by Gly); format: biochemical
Sequence (Q9D1A2 whole entry): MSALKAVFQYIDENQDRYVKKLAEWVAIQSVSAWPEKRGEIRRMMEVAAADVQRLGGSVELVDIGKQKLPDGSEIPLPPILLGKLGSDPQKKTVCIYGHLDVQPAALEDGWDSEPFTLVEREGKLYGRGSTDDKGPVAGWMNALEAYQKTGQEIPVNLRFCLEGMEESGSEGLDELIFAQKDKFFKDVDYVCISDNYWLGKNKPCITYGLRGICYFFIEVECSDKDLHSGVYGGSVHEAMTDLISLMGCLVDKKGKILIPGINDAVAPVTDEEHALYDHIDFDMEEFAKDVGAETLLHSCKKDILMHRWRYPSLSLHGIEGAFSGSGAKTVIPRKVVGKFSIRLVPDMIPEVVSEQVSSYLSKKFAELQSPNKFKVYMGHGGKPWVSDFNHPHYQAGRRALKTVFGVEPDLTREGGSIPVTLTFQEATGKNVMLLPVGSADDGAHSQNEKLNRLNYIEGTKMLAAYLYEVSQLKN
Observed Property: pIC50
The read-out pIC50 is expressed as -log10 of concentration in moles per litre.

Per the records, this compound ( "O=C(Nc1nnc(-c2ccc(F)cc2)o1)c1ccc(Cl)cc1" ) has pIC50 equal to 3.93
